target: sEGFR-MMB (Homo sapiens); construct: made in house; host or cells: Human Embryonic Kidney cells (293E); test: Phage ELISA screening of panning hits; type: binding; conditions: phage clone culture supernatant; background typically <200 units
Bridges are numbered along the chain shown (N, C = ends). Where no end group is shown, it is not given here.
Reported log10 ELISA signal values are given for each entry in this list.
Please be aware that the numbers have been log10-transformed from ELISA signal in units.

- substance: "46 (YICTPSDIDSWYICYL; Peptide family identified from the S20 library) [compound 46]"
  log10 ELISA signal: 3.82
- substance: "28 (TDCIRFGVLWYCLV; Peptide family identified from the S18 library) [compound 28]"
  log10 ELISA signal: 3.68
- substance: "24 (AKCIAFGNSVYCLN; Peptide family identified from the S18 library) [compound 24]"
  log10 ELISA signal: 4.50
- substance: "29 (RACITFGKVVYCEV; Peptide family identified from the S18 library) [compound 29]"
  log10 ELISA signal: 4.49
- substance: "49 (LLCATTSFRDWFVCFT; Peptide family identified from the S20 library) [compound 49]"
  log10 ELISA signal: 3.65

Query string: Return reported log10 ELISA signal. Input substance: 10 (YRLFVDESIFFCTRL; S15 library, which displays a random linear 15-mer) [compound 10]
Result string: 3.49

Query string: Fill in log10 ELISA signal for record 40 (AFCRLDFNQWLTCLV; Peptide family identified from the S19 library) [compound 40]
Result string: 3.41

Query string: Answer with reported log10 ELISA signal of 47 (SVCVGTAFPGWMVCGP; Peptide family identified from the S20 library) [compound 47]
Result string: 3.68

Query string: Please give the documented log10 ELISA signal of RWCYFWWITICEL (S16 and S17 hits Phage 178) [P178]
Result string: 3.90

Query string: Give log10 ELISA signal for 41 (CDCREAVSASLVCRY; Peptide family identified from the S19 library) [compound 41]
Result string: 3.52

Query string: Give the value of log10 ELISA signal reported for the following: 16 (STITSLPTLQCWPIL; S15 library, which displays a random linear 15-mer) [compound 16]
Result string: 4.12

Query string: Look up log10 ELISA signal of 31 (TDCVIFGLETYCLR; disulfide 3-12 (inferred)) [compound 31] and report it.
Result string: 4.58

Query string: Please look at this substance and report its log10 ELISA signal: 19 (GADTLPDLLCWESSL; S15 library, which displays a random linear 15-mer) [compound 19]
Result string: 3.76

Query string: Consider the substance 11 (ELGLPTLLCWPTDTL; S15 library, which displays a random linear 15-mer) [compound 11] and give its recorded log10 ELISA signal.
Result string: 3.97

Query string: For the substance 17 (PIDDESLPVLYCVTS; Random peptide) [compound 17] , give its reported log10 ELISA signal.
Result string: 3.25

Query string: Answer with reported log10 ELISA signal of 44 (WMCFLEGYGASLMCQC; Peptide family identified from the S20 library) [compound 44]
Result string: 3.68

Query string: Report log10 ELISA signal for DACTMVFLWCSL (S16 and S17 hits Phage 177) [P177]
Result string: 3.94

Query string: Retrieve log10 ELISA signal measured for LPDDSLPELICKVRG (S15 library, which displays a random linear 15-mer) [P175] and print it.
Result string: 3.83

Query string: # return recorded log10 ELISA signal for input KTCVSTTFDLWFVCFA (disulfide 3-14 (inferred)) [P176]
Result string: 4.57

Query string: Consider the substance 18 (PIFSSLPVLYCTSQL; S15 library, which displays a random linear 15-mer) [compound 18] . State its measured log10 ELISA signal.
Result string: 3.15

Query string: Supply recorded log10 ELISA signal for 14 (HVSLQSLPELICVVS; S15 library, which displays a random linear 15-mer) [compound 14] here.
Result string: 3.13
